target: MMP-2 (Homo sapiens (Human)); assay: Enzyme inhibition studies, MMP-2; format: biochemical; details: slow-binding; Ki calculated from koff/kon
Sequence (P08253 110-660): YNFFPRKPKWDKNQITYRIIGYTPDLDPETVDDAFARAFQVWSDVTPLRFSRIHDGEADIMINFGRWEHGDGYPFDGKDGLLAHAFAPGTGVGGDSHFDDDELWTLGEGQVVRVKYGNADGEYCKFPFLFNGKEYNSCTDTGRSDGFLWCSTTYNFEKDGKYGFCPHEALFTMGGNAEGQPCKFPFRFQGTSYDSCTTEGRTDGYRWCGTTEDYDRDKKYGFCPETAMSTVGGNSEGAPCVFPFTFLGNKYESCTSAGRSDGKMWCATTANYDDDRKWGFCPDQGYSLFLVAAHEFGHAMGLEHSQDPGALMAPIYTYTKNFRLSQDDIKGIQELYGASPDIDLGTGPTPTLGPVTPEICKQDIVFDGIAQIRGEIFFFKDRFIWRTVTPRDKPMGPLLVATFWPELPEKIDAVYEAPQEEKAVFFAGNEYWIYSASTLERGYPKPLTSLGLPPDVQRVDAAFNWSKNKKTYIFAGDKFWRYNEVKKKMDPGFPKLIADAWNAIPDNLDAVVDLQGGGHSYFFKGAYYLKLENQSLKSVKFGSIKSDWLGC
Where a name gives a salt, the structure may show the parent alone.
assayReadout: Ki (nM)
The figure you give is taken to be in nM; do not add the unit.

Can you look up Ki on MMP-2 (Homo sapiens (Human)) for NCc1ccc(Oc2ccc(S(=O)(=O)CC3CS3)cc2)cc1 (stereo not shown) [Compound 5, HCl salt] ?
85

---

assay: Pharmacokinetics and brain distribution after single iv dose; settings: 10 min after 5 mg/kg single iv, mice
Where a name gives a salt, the structure may show the parent alone.
Measured Brain concentration values are reported for all entries that follow.
The figure you give is taken to be in pmol/mg tissue; do not add the unit.

Please review the entries below; each comes with its answer.
| compound | Brain concentration, pmol/mg tissue |
| --- | --- |
| N=C(N)Nc1ccc(Oc2ccc(S(=O)(=O)CC3CS3)cc2)cc1 (stereo not shown) [Compound 7, HCl salt] | 0.216 |
| NCc1ccc(Oc2ccc(S(=O)(=O)CC3CS3)cc2)cc1 (stereo not shown) [Compound 5, HCl salt] | 1.20 |
| CC(=O)NCc1ccc(Oc2ccc(S(=O)(=O)CC3CS3)cc2)cc1 (stereo not shown) [Compound 6] | 0.954 |

Here is another compound to look at.
I have this compound here, NCc1nc(-c2ccc(Oc3ccc(S(=O)(=O)CC4CS4)cc3)cc2)no1 (stereo not shown) [Compound 4] , and I need its recorded Brain concentration.
3.27
